Origin of values: ChEMBL document CHEMBL1122339

# Test system: Mus musculus
# Protocol description: In vivo potency relative to PGE-2 =100 for diarrheal activity in conscious mice.
# Type: functional
Exercise: for every item that follows, state its recorded Relative potency.
Number only, no unit.

-- ask Please give the measured Relative potency for this molecule: O=C(O)CCC/C=C\C[C@H]1C(=O)C[C@@H](O)C1/C=C/[C@@H](O)C1Cc2ccccc2C1 (some centres not stated)
-- reply 25

-- ask For the molecule shown here, O=C(O)CCC/C=C\C[C@@H]1C(/C=C/[C@@H](O)[C@@H]2CCc3ccccc3C2)[C@H](O)C[C@@H]1O (some centres not stated) , give the reported Relative potency.
-- reply 40

-- ask What Relative potency value was documented for this molecule, O=C(O)CCC/C=C\C[C@@H]1C(/C=C/[C@@H](O)[C@@H]2CCc3ccccc3O2)[C@H](O)C[C@@H]1O (some centres not stated) ?
-- reply 1100

-- ask Relative potency lookup needed for O=C(O)CCC/C=C\C[C@@H]1C(/C=C/[C@H](O)C2Cc3ccccc3O2)[C@H](O)C[C@@H]1O (some centres not stated) , thanks.
-- reply 15

-- ask Return reported Relative potency; argument: O=C(O)CCC/C=C\C[C@H]1C(=O)C[C@@H](O)C1/C=C/[C@@H](O)[C@@H]1CCc2ccccc2O1 (some centres not stated)
-- reply 730

-- ask Returns the measured Relative potency for the input molecule. Input: O=C(O)CCC/C=C\C[C@H]1C(=O)C[C@@H](O)C1/C=C/[C@@H](O)[C@H]1CCc2ccccc2O1 (some centres not stated)
-- reply 270
